Target: mMC1R (Mus musculus, UniProt Q01727)
Sequence (Q01727 whole entry): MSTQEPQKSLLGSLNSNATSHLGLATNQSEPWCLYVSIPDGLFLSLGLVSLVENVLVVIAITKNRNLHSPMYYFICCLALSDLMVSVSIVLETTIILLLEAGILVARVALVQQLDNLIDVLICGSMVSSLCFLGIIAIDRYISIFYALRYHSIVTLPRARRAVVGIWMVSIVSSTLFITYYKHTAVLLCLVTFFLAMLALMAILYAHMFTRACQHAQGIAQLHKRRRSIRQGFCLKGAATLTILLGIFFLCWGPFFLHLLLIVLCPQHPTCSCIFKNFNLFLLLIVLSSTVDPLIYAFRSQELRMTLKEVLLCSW
Test: AlphaScreen cAMP agonist assay at mMC1R
Experimental endpoint: EC50 (µM)
Give bare numbers, in µM.

Note to self: EC50 recorded for Ac-SYSMEHRFWGKPV-NH2 [SKY2-125-5] was 3

###

Molecular target: mMC3R (Mus musculus, UniProt P33033)
Sequence (P33033 whole entry): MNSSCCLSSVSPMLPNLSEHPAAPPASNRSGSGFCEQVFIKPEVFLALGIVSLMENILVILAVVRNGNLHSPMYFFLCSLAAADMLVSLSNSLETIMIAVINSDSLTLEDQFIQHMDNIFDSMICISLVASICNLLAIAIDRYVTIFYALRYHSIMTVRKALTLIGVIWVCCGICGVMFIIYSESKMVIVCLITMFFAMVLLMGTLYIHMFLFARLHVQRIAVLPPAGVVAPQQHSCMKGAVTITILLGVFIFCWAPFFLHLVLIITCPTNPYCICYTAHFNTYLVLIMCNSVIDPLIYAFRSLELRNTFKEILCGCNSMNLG
Details: Table 1; Schild analysis, pA2 = -Log(Ki); Full Agonist = full dose-response, No Activity = no shift in EC50
Square brackets hold non-standard residues; d marks the D form. Peptide text beside a SMILES is read from it. Bip = N[C@@H](Cc1ccc(-c2ccccc2)cc1)C(=O)O; dPhe(4-I) = N[C@H](Cc1ccc(I)cc1)C(=O)O; 2Nal = N[C@@H](Cc1ccc2ccccc2c1)C(=O)O; d2Nal = N[C@H](Cc1ccc2ccccc2c1)C(=O)O; Tic = O=C(O)[C@@H]1Cc2ccccc2CN1
Experimental endpoint: mMC3R Antagonist pA2 ± SEM

# Molecule, Target or system, mMC3R Antagonist pA2 ± SEM
records = [
    ("CC(=O)N1Cc2ccccc2C[C@H]1C(=O)N[C@@H](CCCNC(=N)N)C(=O)N[C@H](Cc1ccc(I)cc1)C(=O)N1Cc2ccccc2C[C@H]1C(N)=O [SKY6-24-1, Ac-Tic-Arg-(pI)DPhe-Tic-NH2] (Ac-[Tic]R[dPhe(4-I)][Tic]-NH2)", "mMC3R (Mus musculus, UniProt P33033)", "Full Agonist"),
    ("CC(=O)N[C@@H](CCCNC(=N)N)C(=O)N[C@@H](CCCNC(=N)N)C(=O)N[C@H](Cc1ccc(I)cc1)C(=O)N[C@@H](Cc1ccccc1)C(N)=O", "mMC3R (Mus musculus, UniProt P33033)", "Full Agonist"),
    ("CC(=O)N[C@@H](Cc1ccccc1)C(=O)N[C@@H](CCCNC(=N)N)C(=O)N[C@H](Cc1ccc(I)cc1)C(=O)N1Cc2ccccc2C[C@H]1C(N)=O [SKY4-48-23, Ac-Phe-Arg-(pI)DPhe-Tic-NH2] (Ac-FR[dPhe(4-I)][Tic]-NH2)", "mMC3R (Mus musculus, UniProt P33033)", "Full Agonist"),
    ("CC(=O)N[C@@H](Cc1c[nH]cn1)C(=O)N[C@@H](CCCNC(=N)N)C(=O)N[C@H](Cc1ccc(I)cc1)C(=O)N[C@@H](Cc1ccccc1)C(N)=O [SKY5-146-3, Ac-His-Arg-(pI)DPhe-Phe-NH2] (Ac-HR[dPhe(4-I)]F-NH2)", "mMC3R (Mus musculus, UniProt P33033)", "Full Agonist"),
    ("CC(=O)N[C@@H](Cc1ccc2ccccc2c1)C(=O)N[C@@H](CCCNC(=N)N)C(=O)N[C@H](Cc1ccc(I)cc1)C(=O)N1Cc2ccccc2C[C@H]1C(N)=O [SKY4-48-24, Ac-Nal(2′)-Arg-(pI)DPhe-Tic-NH2] (Ac-[2Nal]R[dPhe(4-I)][Tic]-NH2)", "mMC3R (Mus musculus, UniProt P33033)", "Full Agonist"),
    ("CC(=O)N[C@@H](Cc1ccc2ccccc2c1)C(=O)N[C@@H](CCCNC(=N)N)C(=O)N[C@H](Cc1ccc(I)cc1)C(=O)N[C@@H](Cc1ccc2ccccc2c1)C(N)=O [SKY4-48-40, Ac-Nal(2′)-Arg-(pI)DPhe-Nal(2′)-NH2] (Ac-[2Nal]R[dPhe(4-I)][2Nal]-NH2)", "mMC3R (Mus musculus, UniProt P33033)", "No Activity"),
    ("CC(=O)N1Cc2ccccc2C[C@H]1C(=O)N[C@@H](CCCNC(=N)N)C(=O)N[C@H](Cc1ccc(I)cc1)C(=O)N[C@@H](Cc1ccccc1)C(N)=O [SKY4-48-30, Ac-Tic-Arg-(pI)DPhe-Phe-NH2] (Ac-[Tic]R[dPhe(4-I)]F-NH2)", "mMC3R (Mus musculus, UniProt P33033)", "No Activity"),
]

Moving on to the next molecule.
Lab note: CC(=O)N[C@@H](Cc1ccc(-c2ccccc2)cc1)C(=O)N[C@@H](CCCNC(=N)N)C(=O)N[C@H](Cc1ccc(I)cc1)C(=O)N[C@H](Cc1ccc2ccccc2c1)C(N)=O [SKY4-48-44, Ac-Bip-Arg-(pI)DPhe-DNal(2′)-NH2] (Ac-[Bip]R[dPhe(4-I)][d2Nal]-NH2) gave mMC3R Antagonist pA2 ± SEM of No Activity

###

Target: UniProt P56450
Sequence (P56450 whole entry): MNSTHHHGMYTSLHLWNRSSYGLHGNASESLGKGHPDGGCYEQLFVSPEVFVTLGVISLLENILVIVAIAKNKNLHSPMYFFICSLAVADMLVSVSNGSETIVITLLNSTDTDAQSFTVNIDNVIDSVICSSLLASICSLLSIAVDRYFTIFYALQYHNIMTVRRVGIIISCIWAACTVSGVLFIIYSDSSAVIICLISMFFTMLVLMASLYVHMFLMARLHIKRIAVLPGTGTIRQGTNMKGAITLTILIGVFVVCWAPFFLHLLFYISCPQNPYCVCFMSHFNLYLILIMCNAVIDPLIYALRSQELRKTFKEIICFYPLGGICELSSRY
Experiment: AlphaScreen cAMP agonist assay at mMC4R
Details: read-out: mMC4R Agonist, percent of the NDP-MSH maximal positive control
Square brackets hold non-standard residues; d marks the D form. Peptide text beside a SMILES is read from it. Bip = N[C@@H](Cc1ccc(-c2ccccc2)cc1)C(=O)O; dPhe(4-I) = N[C@H](Cc1ccc(I)cc1)C(=O)O; 2Nal = N[C@@H](Cc1ccc2ccccc2c1)C(=O)O; d2Nal = N[C@H](Cc1ccc2ccccc2c1)C(=O)O; Bta = N[C@@H](Cc1csc2ccccc12)C(=O)O; Tic = O=C(O)[C@@H]1Cc2ccccc2CN1
Lab note: anything with activation at 100 µM at or over 40% counts as Yes; the rest go in No.

# Molecule, Target or system, Category label
measured = [
    ("CC(=O)N[C@@H](Cc1csc2ccccc12)C(=O)N[C@@H](CCCNC(=N)N)C(=O)N[C@H](Cc1ccc(I)cc1)C(=O)N[C@@H](Cc1ccc(-c2ccccc2)cc1)C(N)=O [SKY4-48-5, Ac-3Bal-Arg-(pI)DPhe-Bip-NH2] (Ac-[Bta]R[dPhe(4-I)][Bip]-NH2)", "UniProt P56450", "No"),
    ("CC(=O)N[C@@H](Cc1c[nH]cn1)C(=O)N[C@@H](CCCNC(=N)N)C(=O)N[C@H](Cc1ccc(I)cc1)C(=O)N[C@@H](Cc1ccc2ccccc2c1)C(N)=O [SKY4-48-35, Ac-His-Arg-(pI)DPhe-Nal(2′)-NH2] (Ac-HR[dPhe(4-I)][2Nal]-NH2)", "UniProt P56450", "No"),
    ("CC(=O)N[C@@H](Cc1ccc2ccccc2c1)C(=O)N[C@@H](CCCNC(=N)N)C(=O)N[C@H](Cc1ccc(I)cc1)C(=O)N1Cc2ccccc2C[C@H]1C(N)=O [SKY4-48-24, Ac-Nal(2′)-Arg-(pI)DPhe-Tic-NH2] (Ac-[2Nal]R[dPhe(4-I)][Tic]-NH2)", "UniProt P56450", "No"),
    ("CC(=O)N[C@H](Cc1ccc2ccccc2c1)C(=O)N[C@@H](CCCNC(=N)N)C(=O)N[C@H](Cc1ccc(I)cc1)C(=O)N1Cc2ccccc2C[C@H]1C(N)=O [SKY6-24-3, Ac-DNal(2′)-Arg-(pI)DPhe-Tic-NH2] (Ac-[d2Nal]R[dPhe(4-I)][Tic]-NH2)", "UniProt P56450", "No"),
    ("CC(=O)N[C@H](Cc1ccc2ccccc2c1)C(=O)N[C@@H](CCCNC(=N)N)C(=O)N[C@H](Cc1ccc(I)cc1)C(=O)N[C@H](Cc1ccc2ccccc2c1)C(N)=O [SKY4-48-49, Ac-DNal(2′)-Arg-(pI)DPhe-DNal(2′)-NH2] (Ac-[d2Nal]R[dPhe(4-I)][d2Nal]-NH2)", "UniProt P56450", "No"),
    ("CC(=O)N[C@H](Cc1ccc2ccccc2c1)C(=O)N[C@@H](CCCNC(=N)N)C(=O)N[C@H](Cc1ccc(I)cc1)C(=O)N[C@@H](Cc1ccc(-c2ccccc2)cc1)C(N)=O [SKY5-146-2, Ac-DNal(2′)-Arg-(pI)DPhe-Bip-NH2] (Ac-[d2Nal]R[dPhe(4-I)][Bip]-NH2)", "UniProt P56450", "Yes"),
    ("CC(=O)N[C@H](Cc1ccc2ccccc2c1)C(=O)N[C@@H](CCCNC(=N)N)C(=O)N[C@H](Cc1ccc(I)cc1)C(=O)N[C@@H](Cc1csc2ccccc12)C(N)=O [SKY4-48-17, Ac-DNal(2′)-Arg-(pI)DPhe-3Bal-NH2] (Ac-[d2Nal]R[dPhe(4-I)][Bta]-NH2)", "UniProt P56450", "Yes"),
]

Exam item: Textbook exercise: given the entry CC(=O)N[C@@H](Cc1c[nH]cn1)C(=O)N[C@@H](CCCNC(=N)N)C(=O)N[C@H](Cc1ccc(I)cc1)C(=O)N[C@@H](Cc1csc2ccccc12)C(N)=O [SKY4-48-11, Ac-His-Arg-(pI)DPhe-3Bal-NH2] (Ac-HR[dPhe(4-I)][Bta]-NH2) , state whether its activation at 100 µM is greater than or equal to 40%.
Marked response: Yes

###

Hi there, I'd appreciate the recorded mMC3R Agonist, percent of the NDP-MSH maximal positive control for every entry that follows.
Biological target: mMC3R (Mus musculus, UniProt P33033)
Assay: AlphaScreen cAMP agonist assay at mMC3R
Conditions: Table 1; @ 100 μM
Square brackets hold non-standard residues; d marks the D form. Peptide text beside a SMILES is read from it. Bip = N[C@@H](Cc1ccc(-c2ccccc2)cc1)C(=O)O; dPhe(4-I) = N[C@H](Cc1ccc(I)cc1)C(=O)O; 2Nal = N[C@@H](Cc1ccc2ccccc2c1)C(=O)O; d2Nal = N[C@H](Cc1ccc2ccccc2c1)C(=O)O; Bta = N[C@@H](Cc1csc2ccccc12)C(=O)O

Would you please look over these solved cases?
# Compound, Measured value
rows = [
    ("CC(=O)N[C@@H](Cc1ccccc1)C(=O)N[C@@H](CCCNC(=N)N)C(=O)N[C@H](Cc1ccc(I)cc1)C(=O)N[C@@H](Cc1ccc(-c2ccccc2)cc1)C(N)=O [SKY4-48-7, Ac-Phe-Arg-(pI)DPhe-Bip-NH2] (Ac-FR[dPhe(4-I)][Bip]-NH2)", "30% @ 100 μM"),
    ("CC(=O)N[C@@H](Cc1ccc(-c2ccccc2)cc1)C(=O)N[C@@H](CCCNC(=N)N)C(=O)N[C@H](Cc1ccc(I)cc1)C(=O)N[C@@H](Cc1ccccc1)C(N)=O [SKY4-48-28, Ac-Bip-Arg-(pI)DPhe-Phe-NH2] (Ac-[Bip]R[dPhe(4-I)]F-NH2)", "77% @ 100 μM"),
    ("CC(=O)N[C@@H](Cc1csc2ccccc12)C(=O)N[C@@H](CCCNC(=N)N)C(=O)N[C@H](Cc1ccc(I)cc1)C(=O)N[C@@H](Cc1ccc(-c2ccccc2)cc1)C(N)=O [SKY4-48-5, Ac-3Bal-Arg-(pI)DPhe-Bip-NH2] (Ac-[Bta]R[dPhe(4-I)][Bip]-NH2)", "51% @ 100 μM"),
    ("CC(=O)N[C@H](Cc1ccc2ccccc2c1)C(=O)N[C@@H](CCCNC(=N)N)C(=O)N[C@H](Cc1ccc(I)cc1)C(=O)N[C@@H](Cc1ccc(-c2ccccc2)cc1)C(N)=O [SKY5-146-2, Ac-DNal(2′)-Arg-(pI)DPhe-Bip-NH2] (Ac-[d2Nal]R[dPhe(4-I)][Bip]-NH2)", "30% @ 100 μM"),
]

Take each entry in turn and give its mMC3R Agonist, percent of the NDP-MSH maximal positive control.
1. CC(=O)N[C@H](Cc1ccc2ccccc2c1)C(=O)N[C@@H](CCCNC(=N)N)C(=O)N[C@H](Cc1ccc(I)cc1)C(=O)N[C@@H](Cc1ccc2ccccc2c1)C(N)=O [SKY5-146-5, Ac-DNal(2′)-Arg-(pI)DPhe-Nal(2′)-NH2] (Ac-[d2Nal]R[dPhe(4-I)][2Nal]-NH2)
2. CC(=O)N[C@@H](Cc1ccc2ccccc2c1)C(=O)N[C@@H](CCCNC(=N)N)C(=O)N[C@H](Cc1ccc(I)cc1)C(=O)N[C@@H](Cc1ccccc1)C(N)=O [SKY4-48-32, Ac-Nal(2′)-Arg-(pI)DPhe-Phe-NH2] (Ac-[2Nal]R[dPhe(4-I)]F-NH2)
3. CC(=O)N[C@@H](Cc1csc2ccccc12)C(=O)N[C@@H](CCCNC(=N)N)C(=O)N[C@H](Cc1ccc(I)cc1)C(=O)N[C@@H](Cc1ccccc1)C(N)=O [SKY5-146-4, Ac-3Bal-Arg-(pI)DPhe-Phe-NH2] (Ac-[Bta]R[dPhe(4-I)]F-NH2)

Marked response:
1. 43% @ 100 μM
2. 42% @ 100 μM
3. 37% @ 100 μM
